tested on: SK-MEL-5 melanoma; assay: NCI tumour cell line growth inhibition, 48 h
Please provide measured TGI for the entries that follow.
Provide the reading as a plain figure in µM.

I'm curious: which TGI was measured for COc1cccc(C2=C(c3cn(C)c4ccc(Cl)cc34)C(=O)NC2=O)c1 tested on SK-MEL-5 melanoma?
8.35

Likewise for COC(=O)c1oc([N+](=O)[O-])c(Cl)c1Cl ?
17.7

Moving on to the next molecule: COc1cc(/C=C/C(=O)c2ccc(Nc3nc(NCCO)nc(N4CCOCC4)n3)cc2)cc(OC)c1OC
3.28

And the next one, CCCCC(CCCCCC(CCCC)C1NC(C)Cc2cc(OC)c(OC)cc21)C1NC(C)Cc2cc(OC)c(OC)cc21 (stereo not given) ?
2.85

----------
Exercise: for every item that follows, state its recorded TGI.
tested on: TK-10 renal; assay: NCI tumour cell line growth inhibition, 48 h
Form entry: value (µM) — number only.

Hi! What's the reported TGI for C=C1CC2(CC(c3ccccc3OC)OC(c3ccccc3OC)C2)OC1=O (stereo not given) on TK-10 renal?
4.31

What do you get for C=C(Cl)C(Cl)(CBr)CCCC(C)(C)Cl (stereo not given) ?
4.54

Again, but for C[C@]12CC[C@@H]3c4cc(Br)c(O)c(Br)c4CC[C@H]3[C@@H]1CC(Br)C2=O (stereo not given in full)
29.4

Please answer likewise for O=C1C[C@@H](Sc2ccccc2)C2(OCCO2)C2ON3CCCC[C@H]3[C@H]12 (stereo not given in full)
13

Can you check O=C(CCc1nnc2s/c(=C\c3ccccc3[N+](=O)[O-])c(=O)n12)Nc1cc(Cl)c(Cl)cc1Cl next?
87.9

----------
Could you please report measured GI50 for the items listed next?
test system: HCT-116 colon; experiment: NCI tumour cell line growth inhibition, 48 h

# input molecule: CCCCC(CCCCCC(CCCC)C1NC(C)Cc2cc(OC)c(OC)cc21)C1NC(C)Cc2cc(OC)c(OC)cc21 (stereo not given) ; wanted: its GI50
1.49 µM

Item: COc1cc(/C=C/C(=O)c2ccc(Nc3nc(NCCO)nc(N4CCOCC4)n3)cc2)cc(OC)c1OC
1.3 µM

Nc1n[nH]c2cccc(C#Cc3cccc(NC(=O)c4ccc(N5CCOCC5)c(C(F)(F)F)c4)c3)c12 , same question.
0.653 µM

Next molecule: COc1cccc(C2=C(c3cn(C)c4ccc(Cl)cc34)C(=O)NC2=O)c1
3.8 µM

# iterate: COc1cc(Nc2ccnc(NCCNc3ccnc4cc(Cl)ccc34)n2)cc(OC)c1
0.83 µM

Now try C[CH2][Sn]([CH2]C)([O]C(=O)c1ccccc1F)[O]C(=O)c1ccccc1F .
> 69.8 µM

What do you get for S=C(S)NCCNC(=S)S.[Cu+2] ?
> 100 µM

Try this molecule next: OCCCCC#Cc1ccccc1C#Cc1ccccn1
30.8 µM

Follow-up entry: O=C(c1ccc(Cl)c(Cl)c1)N1CCN(C(=O)c2ccc(Cl)c(Cl)c2)C1=S
18.1 µM

Thanks! And O=C1Nc2ccccc2/C1=C\c1c(-c2ccccc2)nc2ccccn12 ?
3.61 µM

----------
system: TK-10 renal; test: NCI tumour cell line growth inhibition, 48 h; in the data active = GI50 below about 0.43 µM; inactive = the rest
Outcomes you can answer with include only these: active, inactive

Could you kindly confirm the outcome this assay logged for O=C(C[n+]1cccc2cc(Cl)ccc21)c1ccc2c(c1)CCCC2 ?
inactive

Now the same for CC[C@H](C)[C@H](NC(=O)c1ccccn1)C(=O)N(C)[C@H](C[C@@H](OC(C)=O)c1nc(C(=O)N[C@@H](Cc2ccccc2)C[C@H](C)C(=O)OC)cs1)C(C)C
inactive

Please answer likewise for COc1cccc(C2=C(c3cn(C)c4ccc(Cl)cc34)C(=O)NC2=O)c1
inactive

How about CC[N+](CC)=c1cc2oc3cc(N(C)C)ccc3nc-2cc1C ?
inactive

And for CC1=C(C(=O)Nc2ccc(F)c(Cl)c2)C(c2cccc(Cl)c2)NC(=S)N1 (centres undefined) ?
inactive

Next: CCCCC(CCCCCC(CCCC)C1NC(C)Cc2cc(OC)c(OC)cc21)C1NC(C)Cc2cc(OC)c(OC)cc21 (centres undefined)
inactive

Input c1cc[n+](C2c3ccccc3C([n+]3ccccc3)c3ccccc32)cc1 (centres undefined)
inactive

# iterate: COc1cc2c(/C=C3/C(=O)Nc4c3ccc3ccccc43)c(Cl)n(C)c2cc1C
active

Cool, now N#CC1(Nc2ccc(Br)cc2)CCCC1
inactive
